Biological target: T1, Human Cadherin-19 (human, UniProt Q9H159 44-772)
T1 construct: also called CDH19; huCDH19
Assay: FACS, endogenous CDH-19 on CHL-1 and Colo699 tumor cells
metric: binding result

binder: hu anti-<huCDH19> 22D1.1 (Ab ID 13879) (antibody, human IgG1, lambda, V domains shown, huIgG1z / huLLC-C2; Bin 2) VH: QVQLVQSGAEVKKPGASVRVSCKVSGYTFTSYFIHWVRQAPGQGLEWMGIINPISVSTSYAQKFQGRVTMTRDTSTSTVFMELSSLRSEDTAVYYCARGGIQLWLHLDYWGQGTLVTVSS VL: QSALTQPPSATGTPGQRVTISCSGSSSNIGSNFVNWYKQLPGTAPKVLIYTNNQRPSGVPDRFSGSKSGTSASLAISGLQSEDESDYYCATWDDSMNGWVFGGGTKLTVLG
recorded_measurement: binds

binder: hu anti-<huCDH19> 16C1.1 (Ab ID 13875) (antibody, human IgG1, kappa, V domains shown, huIgG1z / huKLC; Bin 3) VH: QVQLQESGPGLVKPSETLSLTCTVSGGSISGYYWSWIRQPPGKGLEWIGYIYYIGSTNYNPSLKSRVTMSIDTSKNQFSLTLSSLTAADTAVYFCARDGSSGWYRWFDPWGQGTLVTVSS VL: EIVLTQSPGTLSLSPGERATLSCRASQSVSSSYLAWYQQKPGQAPRLLIFGASSRATGIPDRFSGSGSGTDFTLTISGLEPEDFAVYHCQQYGNSPLTFGGGTKVEIKR
recorded_measurement: binds

binder: hu anti-<huCDH19> 22G10.1 (Ab ID 13877) (antibody, human IgG1, kappa, V domains shown, huIgG1z / huKLC; Bin 3) VH: EVQLLESGGGLVQPGGSLRLSCAASGFTFSSYAMNWVRQAPGKGLEWVSTISGGGANTYYADSVKGRFTISSDNSKSTLYLQMNSLRAADTAVYHCAKGGMGGYYYGMDVWGQGTTVTVSS VL: EIVMTQSPVTLSLSLGERATLSCRASQSISSNLAWFQQKPGQAPRLLIYGAFTRATGIPARVSGSGSGTEFTLTISSLQSEDFAVYYCQQYNYWPLTFGGGTKVEIKR
recorded_measurement: binds
